The reported measurements were obtained from patent US6737383B1.

# System: velvetleaf
# procedureText: Test B pre/postemergence velvetleaf
# Format: in vivo, Abutilon theophrasti
# experimentalConditions: Rate 500 g/ha, Preemergence; scale 0 to 10 (0 no effect, 10 complete control)
testReadout: Velvetleaf plant response rating
Enter the number alone.

C#CCn1c(=O)on(C(=O)N(c2ccccc2)C(C)C)c1=O on velvetleaf gives Velvetleaf plant response rating = 5

CCOC(CC)n1c(=O)on(C(=O)N(c2ccc(F)cc2)C(C)C)c1=O (stereo not shown) on velvetleaf gives Velvetleaf plant response rating = 0

COC(CCl)n1c(=O)on(C(=O)N(c2ccc(Cl)cc2)C(C)C)c1=O (stereo not shown) on velvetleaf gives Velvetleaf plant response rating = 0

COCC(OC)n1c(=O)on(C(=O)N(c2ccccc2)C(C)C)c1=O (stereo not shown) on velvetleaf gives Velvetleaf plant response rating = 7
